Ref: ChEMBL document CHEMBL3632506

- TEST_SUMMARY: Inhibition of soybean lipoxygenase assessed as reduction in conversion of sodium linoleate to 13-hydroperoxylinoleic acid up to 7 mins
- Parameters: species or system Glycine max
QUANTITY_NAME: log10 IC50 (log10 of the value in µM)

COMPOUND	log10 IC50
CC(Cc1ccc(O)c(O)c1)C(C)Cc1ccc(O)c(O)c1 (configuration not stated) [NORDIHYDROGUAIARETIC ACID]	0.11
CC(C)Cc1ccc(C(C)C(=O)OC/C=C/c2ccccc2)cc1 (configuration not stated)	0.83
OC/C=C/c1ccccc1	2.40
O=C(CCCCC1CCSS1)OC/C=C/c1ccccc1 (configuration not stated)	1.05
COc1ccc2c(c1)c(CC(=O)OC/C=C/c1ccccc1)c(C)n2C(=O)c1ccc(Cl)cc1	0.95
COc1ccc2cc([C@H](C)C(=O)OC/C=C/c3ccccc3)ccc2c1	1.61
Cc1c(Cl)cccc1Nc1ccccc1C(=O)OC/C=C/c1ccccc1	0.98
CC(C(=O)OC/C=C/c1ccccc1)c1cccc(C(=O)c2ccccc2)c1 (configuration not stated)	1.35
O=C(Cc1c[nH]c2ccccc12)OC/C=C/c1ccccc1	2.06
O=C(OC/C=C/c1ccccc1)c1ccccc1Nc1cccc(C(F)(F)F)c1	0.95
Cc1cccc(Nc2ccccc2C(=O)OC/C=C/c2ccccc2)c1C	1.58
O=C(Cc1ccccc1Nc1c(Cl)cccc1Cl)OC/C=C/c1ccccc1	1.89
